# Test system: SNB-75
# test-summary: NCI tumour cell line growth inhibition, 48 h
Active and inactive are the calls of the source. Cut-off read from the data, not from the text of the source: active = GI50 up to about 1.1 µM and inactive = higher.
quantity-kind: GI50

# annotated cases, reported GI50 shown
> print(dat)
                                   compound  quantity.kind               result
1  O=C(O)C12C3C4C1C1C2C3C1(Br)C41OCCO1 (centres undefined)           GI50  > 100 µM (inactive)
2  O=S(=O)(O)c1ccc(/N=N/c2ccc3c(S(=O)(=O)O)cccc3c2O)c2ccccc12           GI50  > 100 µM (inactive)
3  CCOC(=O)NN(C(=O)OCC)C(=C(C1=CCCCC1)N1CCOCC1)N(NC(=O)OCC)C(=O)OCC           GI50  > 100 µM (inactive)
4  COC(=O)NC(=O)c1cn(C2CCCCC2)c(=O)[nH]c1=O           GI50  > 100 µM (inactive)
5  COc1cccc([C@H]2C/C(=N\NC(=O)C(=O)N[C@@H](C)c3ccccc3)c3ccccc3N2)c1           GI50   8.53 µM (inactive)

Batch: GI50 for all items listed.
1. CC(=O)N1c2ccccc2Sc2cc(C(O)(C(F)(F)F)C(F)(F)F)ccc21
2. COc1cc(OCc2ccc3oc(=O)c(-c4ccccc4)nc3c2)cc(OC)c1OC
3. CCOC(=O)CCC(NC(=O)c1ccc(Nc2cnc3cc(C(F)(F)F)ccc3n2)cc1)C(=O)OCC (centres undefined)

## Result
1: 9.59 µM (inactive); 2: > 100 µM (inactive); 3: 1.9 µM (inactive)

## Task Name the reported GI50 value associated with the compound Brc1ccc2c(c1)-c1nc3nc4c(cc3cc1CC2)CCc1ccc(Br)cc1-4
## Result > 100 µM (inactive)

---

# System: SNB-78
# test-summary: NCI tumour cell line growth inhibition, 48 h
Active and inactive are the calls of the source. Cut-off read from the data, not from the text of the source: active = GI50 up to about 1.1 µM and inactive = higher.
Field 'call' accepts active, inactive

## Task Please indicate how the test categorized COC1=C(C)C(=O)C2=C(C1=O)C1C3CC4=C(C(=O)C(OC)=C(C)C4=O)C(CNC(=O)C(C)=O)N3C(C#N)C(C2)N1C (stereo not given) .
## Result active

## Task Please indicate how the test categorized N/N=C(/Cc1nc2ccc(C(=O)c3ccccc3)cc2nc1O)C(=O)Nc1ccc([N+](=O)[O-])cc1[N+](=O)[O-] .
## Result inactive

## Task Please indicate how the test categorized Cc1c(C(=O)/C=C/c2ccc([N+](=O)[O-])cc2)[n+]([O-])c2ccccc2[n+]1[O-] .
## Result inactive

## Task Please indicate how the test categorized O=C(O)CCC1(Br)CCCCC(Br)C1=O (stereo not given) .
## Result inactive

## Task Please indicate how the test categorized CCC(O)C1Cc2c(C)cc3c(c2O1)C(=O)c1ccccc1C3=O (stereo not given) .
## Result inactive

---

# Test system: MOLT-4
# test-summary: NCI tumour cell line growth inhibition, 48 h
Active and inactive are the calls of the source. Rule as the data show it: active = GI50 up to about 1.1 µM and inactive = higher.
Field 'call' accepts class 1 for active, class 0 for inactive

Would you please look over these solved cases?
molecule	answer-label
COc1cccc(/C=C/C(=O)N2CC(CCl)c3c2cc(N)c2ccccc32)c1 (stereo unspecified)	class 1
CC(=O)OC1CCC2OOC1O2 (stereo unspecified)	class 0
O=C(OCCOCBr)c1ccccc1	class 0
Cc1ccc2nc(NC(=O)/C(=N\NC(=S)NN)C3C(=O)NC(=S)NC3=O)sc2c1	class 0
COc1ccc(-c2nc3ncccn3c2-c2ccc(S(C)(=O)=O)cc2)cc1	class 0
CCCCCCCCCCCC1=NCCN1	class 0
COc1cc(OCc2ccc3oc(=O)c(-c4ccccc4)nc3c2)cc(OC)c1OC	class 0
CC/C=C/c1cc2c(cc1O)CCC1C2CC[C@@]2(C)C1CC[C@@H]2O (stereo partly specified)	class 0
COC(=O)C(=O)C(C(=O)C(=O)Nc1ccccc1C(N)=O)c1nc2ccc(C(=O)c3ccccc3)cc2nc1O (stereo unspecified)	class 0
NC(=S)N1N=C2c3ccccc3CC[C@H]2[C@@H]1c1cccs1	class 0

## Task Please indicate how the test categorized C/N=C(\N)c1ccc(NC(=N)c2ccc(C(=N)Nc3ccc(/C(N)=N/C)cc3)cc2)cc1 .
## Result class 0

## Task Please indicate how the test categorized CC1(c2cccc3ccccc23)OC(=O)c2ccccc21 (stereo unspecified) .
## Result class 0

## Task Please indicate how the test categorized O=c1[nH]c(=O)n(C/C=C/CBr)nc1Br .
## Result class 0

## Task Please indicate how the test categorized Nc1nc(N)nc(-c2cnccn2)n1 .
## Result class 0

## Task Please indicate how the test categorized COc1cc(CCC(=O)O)c2cc3ccccc3cc2c1O .
## Result class 0

## Task Please indicate how the test categorized COC1CC(OC2CCC3(C)C(=CCC4C3C(OC(C)=O)C(OC(=O)CC(C)C)C3(C)C(C(C)=O)CCC43O)C2)OC(C)C1OC1CC(OC)C(OC2CC(OC)C(OC3OC(C)C(O)C(OC)C3O)C(C)O2)C(C)O1 (stereo unspecified) .
## Result class 0

## Task Please indicate how the test categorized O=C(CCC(=O)Nc1ccc(Cl)c(Cl)c1)Cc1nc2ccccc2o1 .
## Result class 0

## Task Please indicate how the test categorized Cc1ccc(/C=N/NS(=O)(=O)c2ccc(/C=C3\NC(=O)NC3=O)cc2)cc1 .
## Result class 0

## Task Please indicate how the test categorized O=S(=O)(c1ccccc1)n1cc(C[P+](c2ccccc2)(c2ccccc2)c2ccccc2)c2ccccc21 .
## Result class 0

## Task Please indicate how the test categorized C=C1CCC2C(C)(CO)C(O)CCC2(C)C1CC(O)C1=CCOC1=O (stereo unspecified) .
## Result class 0

## Task Please indicate how the test categorized O=C(O)c1cc(CCc2ccc(O)c(O)c2)ccc1O .
## Result class 0
